Assay: folding stability dG unfold from chymotrypsin proteolysis; higher = more stable
Items are presented alongside their recorded folding stability dG unfold.
The answer is to be given in kcal/mol; state only the numeric part.

Solved cases below.
• SAGGSAGGSAGSTALVETREFEDGTVVERVEVTLPNGEVLERTVVLTRDEAGNVVEEEVESAGGSAGGSAGG [r11_709_JUSTAS] = 1.29
• SAGGMKIKVTVEVTFPDGTVRTFPVPDATSEEEVRAILAERGFGDLADVPIRITEREPVPAVPPEELLSAGG [r13_493_JUSTAS] = 1.76
• SAGGSAKKLPAEAVAKELAERLSKELGLTIKRVEVEVIDPEKGLVRVTVVYETPYGYLKREILLPVSAGGSA [r15_32_TrMRF] = 3.82
• SAGGLNIKFEILEVYPSPNGMRMIIVRMTIEYPVPVYRRDPNGEWRPMPPGQEPVTIEIDFYIMVTPSAGGS [r16_693_TrROS] = 5.11
• SAGMILTIRPEDGSEEIIPVPKEDIEKLIEDLEKKGIKVLSMTTSPDGVSTIPTQYPDGKKMTITVHLDSAG [r5_645_JUSTAS] = 0.677

query: Fill blank: measured folding stability dG unfold of the sequence SAGGSAGGSAGGKRYRVTELEVVEVDGEKRLLVRFEDGRTQAFPAGAKISPDGAEIELLPSAGGSAGGSAGG [r7_931_TrROS_Hall] is ____.
result: 1.44

query: What about SAGQWVKFTLPIYKMKYEKDKDGKPEIKEMKPIPKFDIEARVDEDGNVRIRFGGNEREFPPGESLEDLISAG [r14_909_TrROS] ?
result: 0.482

query: And for SAGGSAGGSAGGPEIELLEDVKPGEFVVIKVKLKDADGNEVTATFVFYNGEWYLTKIEPSAGGSAGGSAGGS [r10_288_TrROS_Hall] ?
result: 4.73

====

Assay: folding stability dG unfold (combined trypsin and chymotrypsin); higher = more stable
Quantity Measured: folding stability dG unfold (kcal/mol)
Provide only the numeric value, understood in kcal/mol.

- SAGGSAGGSALPTSPTYAVVKVPDKYYIVKTKVGDIIFIPDENGIPVPVKVEPFYPIAPEALSAGGSAGGSA [r18_244_TrMRF]: -0.258

query: # lookup: folding stability dG unfold of SAGGSAGGSAGKEEIKIEITKVEPLEDGSYIAEVIATPKNGKKIPYTALIDPKTGKITIGSAGGSAGGSAGG [r11_31_TrMRF]
result: 0.426

query: Another sequence to check: SAGGSSPLLLTSSPTPLTLPDGGTVTLTTTRVPGDNADVVTITTTPPGTGTTTVTTLPASTAAATLSAGGSA [r2_366_JUSTAS]
result: 1.15

query: What do we get for SAGGMEEILKKLGVKKGDKVKIKIKVEKDGKTETVEIEVPVENLEDILKKLGLSKDQVKITEIKVEKESAGG [r13_681_TrROS_Hall] ?
result: 3.4

query: Record: SAGGMTLEELKEALKKLPPNVKEVKITVVEKNGKLVVVVEVNGKKLVIEFDSEEERKLAEELVKELLSSAGG [r13_287_TrROS_Hall]
result: 3.45

query: Also need SAGGSAGGSAGNMEVIEEVEFTFPGLGVKISVSIFKTDGGIVIMIDIEIPMPPEDRKKFKSAGGSAGGSAGG [r17_431_TrROS] , thanks.
result: 1.25

query: // query: SAGTITKLKTEYDPKGYRFIELLDPLPNDPSVPAEALAQEIKEKYGAEKAEIKPVPGTGAIRILLIKPESAG [r14_228_JUSTAS]
result: -0.67

query: Another sequence: SAGGSNKNSPEDQKRKQQPPQPKVRTIPGPLSEDQIKNLLDNGQPIIIEGPDGEWWVIKNNEIEPISAGGSA [r2_33_TrROS]
result: -0.0552

====

Some sequences, each annotated with its measured folding stability dG unfold.
Experiment: folding stability dG unfold from trypsin proteolysis; higher = more stable
Reply numerically in kcal/mol, unit not repeated.

Before answering, review these 4 worked examples.
- SAGGSAGGSAGGSMSTVFVSTLTLPDPSGLSTVLTTTVEIDPEGNAHPVTSTEEVSAAASAGGSAGGSAGGS [r4_80_JUSTAS]: 0.716
- SAGGSAGGSAGGSPLPGQPPEVILIKLDKPVKVGQTITLPDGYKLEVNEETGYLLIVKTSAGGSAGGSAGGS [r4_78_TrROS_Hall]: 0.705
- SAGGSAPEPIRFYFWWPGKIIEITIPPDEIEKVEIKPDNGDIDITVKLPGEEVEISITPGAIHVQTSAGGSA [r15_598_TrROS]: 1.56
- SAGGSAGGMSPDAKPIGEKTDESPGPEKVTTTTLKSPDPSLTYTVTTTTVGSTTTTTTTAVPVLSAGGSAGG [r6_923_JUSTAS]: 0.439

query: Give the measured folding stability dG unfold of SAKAELEIKFPGWKVTVEIEDVDPKNDMVKLKAFFRNGWVFTQTVNPDDGKIEIPIIPVKPDPDGKWKFSAG [r14_466_TrROS] .
result: 1.21

query: Next sequence: SAGMVIELKTEEEAKAKAEEIAKKNPEANVTLVVTDPETGVKTVIPVKIESPKPKPEFDKKNGKYKDKGSAG [r5_870_JUSTAS]
result: -0.126

====

# maps each entry to its folding stability dG unfold
Assay: folding stability dG unfold (combined trypsin and chymotrypsin); higher = more stable

query: What value of measured folding stability dG unfold is listed for SAMVRIERLPDGSLLVVVESEGKEEGLEFIERFIEEIKSLGIDAEIELLSIEEIPEDPKRYRATFLIKASAG [r14_119_TrMRF] ?
result: > 6 kcal/mol

query: Could you do the same for SAGGSAGGSMPVTVTVTTPDGTTQTLTADAPPAQTFTVTVTGPDGDPRPVRVTVHGTTVTVEGSAGGSAGGS [r12_784_TrMRF] , please?
result: < -1 kcal/mol

query: Queued: SAGGSAGGSELRVLDARPTPDGLVVNLVAPDRLLVTRVDTGADGSQSVSSVVLDAPESTEFDLSAGGSAGGS [r12_981_TrMRF]
result: < -1 kcal/mol

query: Field entry: SAGGGAEEEAKKIAEELEKIGGVKKVEVEVKPKPDDSVEVKVKVEFEPPKPPKPPVVELPENGELVFKSAGG [r13_957_TrMRF]
result: < -1 kcal/mol

====

Test: folding stability dG unfold from trypsin proteolysis; higher = more stable
Quantity Measured: folding stability dG unfold (kcal/mol)
The answer is to be given in kcal/mol; state only the numeric part.

* SAGEVELTEDGSLKITETIEVNGLLFKVTVTIDENGNISVSIEKVEVLPPPPPVEIKLEDEEAKKKALKSAG [r5_715_TrROS_Hall] | 0.26
* SAGGSAGGSPNTIEIWIQIPPGDPEKVEEIAKKLRDEGFKDIKVDEVHRNPDDSYYVEIKITVSAGGSAGGS [r12_91_TrROS] | 1.55

query: What value of folding stability dG unfold has been reported for the following sequence? SAGGSAGGSAGKIELTNIQVWPGPNGRPWISMTISFPDGPVTIWIPFDNPDNIEIEIKPGSAGGSAGGSAGG [r17_64_TrROS]
result: 2.63

query: Further, for SMTTTTLPDGTTVTTLSDGTVKTVTHYPDSVVTETSPITYKLPDGREFTTKEEAEAYEKETGIPVSPALASA [r9_660_JUSTAS] ?
result: 0.62

query: Follow-up entry: SAGGSAMGMRPVRREFTGSGMRITVEVVESTSIPTAEIRVLDPEGRLLRERRLPAEEVEREIARLLSAGGSA [r15_940_JUSTAS]
result: 1.34

query: What about this sequence? SAGGSAGGDIEVRPVGVVPTPDGRLVRVEEVTFPETGRTLLVAVDLEPGRVYVFDPETGEWREESAGGSAGG [r6_114_TrMRF]
result: 0.502

query: And for SAGGSAGGEEEYYEIEIVLPKEKAEEILEELKKKLPEGWEIVSVEVVEVDEDGYVRLRIVVKRTSAGGSAGG [r6_340_TrROS_Hall] ?
result: 5.01

query: // repeat for SAGGSAGGSAGPPNQRHEYEIKLTIYDPDNGKKFTIKIPMESPWDMPNFMRKLADNGYIKSAGGSAGGSAGG [r11_668_TrROS] and report
result: 0.557

query: Quick one: SAGGSAGKKPVEFKVKIMIFNPENGDMYMIEMTITIDPDGQIKIKIKLPDPPRLPPGMVIFIMVYISAGGSA [r15_488_TrROS]
result: 4.08

query: Next sequence up: SAGGSAGGSAGKIEVEGDVEVTVFPPYGLATVTTPNGERYVLLVETRPDGSKRVLLFSAGSAGGSAGGSAGG [r11_331_TrMRF]
result: 2.02

====

Assay: folding stability dG unfold (combined trypsin and chymotrypsin); higher = more stable
Quantity Measured: folding stability dG unfold (kcal/mol)
Please state the figure in kcal/mol; there is no need to write the unit.

Consider the worked cases shown below.
* SAGGSAGGSASLPEKLAQEAKEKILKENPDVEVTEIVVTKLPPEKYTVTIKTPDGKTETIPLSAGGSAGGSA [r18_423_JUSTAS] | -0.308
* SAGGIWIPVPNADWAVDFIIEFIDQFGPGAKIDKITVYNGGKEREITPGEPPKIPPGSWFEIDLEPKSAGGS [r16_267_TrROS] | 0.984
* SAGGSAGGSAPELVKKIAEELPVPVKVEPFGNVLLVELELPNEDGEPVKLRLAIPIPPELLGSAGGSAGGSA [r18_27_TrMRF] | 0.463
* SAGGSAGGSAGYKPGEVVYIEVEDPETGKSLKVPVKVPENMTPEQAKKLAEEAAKKYREGSAGGSAGGSAGG [r11_355_TrMRF] | 2.02
* SAGGSLPLPPGATVETTEVDPANPDRTYKTTTTFTPVPGNTLLATPVVTDPETGTTTTTTTTVPLALGSAGG [r13_268_JUSTAS] | 0.64

// switching to the query sequence
query: Can you share its folding stability dG unfold? I mean this sequence: SAGGMEEIVKALPPEAGVVEIESEPLPLEDSILRRYRLRVYNPATGKWEELEVLIEYDKDGNIRRIVASAGG [r13_358_TrMRF]
result: 3.6

The origin of these recorded values is the supplement of paper PMC12764529.
